Molecular target: HDAC6 (Homo sapiens)
Sequence (Q9UBN7 whole entry): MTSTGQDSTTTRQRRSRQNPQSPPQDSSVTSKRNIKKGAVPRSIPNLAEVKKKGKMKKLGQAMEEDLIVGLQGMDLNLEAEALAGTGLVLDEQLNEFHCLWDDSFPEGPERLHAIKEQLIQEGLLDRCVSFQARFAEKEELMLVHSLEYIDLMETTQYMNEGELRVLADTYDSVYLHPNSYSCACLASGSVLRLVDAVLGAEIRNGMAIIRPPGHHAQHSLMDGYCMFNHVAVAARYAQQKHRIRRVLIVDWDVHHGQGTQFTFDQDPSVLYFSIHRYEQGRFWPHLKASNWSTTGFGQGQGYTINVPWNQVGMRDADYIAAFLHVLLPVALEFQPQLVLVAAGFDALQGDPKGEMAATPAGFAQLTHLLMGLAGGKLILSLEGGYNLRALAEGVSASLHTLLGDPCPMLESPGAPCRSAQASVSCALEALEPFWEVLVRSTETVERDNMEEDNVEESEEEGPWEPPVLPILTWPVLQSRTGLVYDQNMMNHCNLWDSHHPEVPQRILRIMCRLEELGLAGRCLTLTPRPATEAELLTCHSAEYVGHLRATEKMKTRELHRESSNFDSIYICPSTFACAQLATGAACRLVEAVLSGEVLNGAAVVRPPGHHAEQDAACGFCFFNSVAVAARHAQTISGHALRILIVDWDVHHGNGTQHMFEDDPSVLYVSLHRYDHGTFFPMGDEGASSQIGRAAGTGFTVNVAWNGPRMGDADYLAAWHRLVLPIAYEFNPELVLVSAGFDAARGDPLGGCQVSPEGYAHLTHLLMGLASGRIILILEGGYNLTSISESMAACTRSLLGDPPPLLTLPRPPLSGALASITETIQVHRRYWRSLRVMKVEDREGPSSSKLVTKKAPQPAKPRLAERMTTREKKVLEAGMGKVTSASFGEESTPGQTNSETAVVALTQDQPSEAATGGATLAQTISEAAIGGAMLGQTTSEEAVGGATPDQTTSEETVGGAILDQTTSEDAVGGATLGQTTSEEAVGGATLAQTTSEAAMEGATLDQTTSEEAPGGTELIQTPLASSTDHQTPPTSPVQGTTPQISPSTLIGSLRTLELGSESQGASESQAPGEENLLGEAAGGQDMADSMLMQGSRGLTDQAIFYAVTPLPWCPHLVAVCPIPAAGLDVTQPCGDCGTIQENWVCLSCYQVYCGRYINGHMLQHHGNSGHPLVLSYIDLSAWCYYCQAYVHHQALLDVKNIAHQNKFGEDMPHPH
Assay: HDAC6 isozyme inhibition
Assay type: biochemical
measurement.type: pIC50
Units for pIC50: none; it is -log10 of a concentration expressed in mol/L.

What value of measured pIC50 is listed for O=C(NO)c1cc(Cn2c3ccccc3c3ccccc32)on1 [Compound 17] ? 5.82

====

Below, each of the compounds is paired with its reported pIC50 value.
Molecular target: HDAC10 (Homo sapiens, UniProt Q969S8)
Sequence (Q969S8 whole entry): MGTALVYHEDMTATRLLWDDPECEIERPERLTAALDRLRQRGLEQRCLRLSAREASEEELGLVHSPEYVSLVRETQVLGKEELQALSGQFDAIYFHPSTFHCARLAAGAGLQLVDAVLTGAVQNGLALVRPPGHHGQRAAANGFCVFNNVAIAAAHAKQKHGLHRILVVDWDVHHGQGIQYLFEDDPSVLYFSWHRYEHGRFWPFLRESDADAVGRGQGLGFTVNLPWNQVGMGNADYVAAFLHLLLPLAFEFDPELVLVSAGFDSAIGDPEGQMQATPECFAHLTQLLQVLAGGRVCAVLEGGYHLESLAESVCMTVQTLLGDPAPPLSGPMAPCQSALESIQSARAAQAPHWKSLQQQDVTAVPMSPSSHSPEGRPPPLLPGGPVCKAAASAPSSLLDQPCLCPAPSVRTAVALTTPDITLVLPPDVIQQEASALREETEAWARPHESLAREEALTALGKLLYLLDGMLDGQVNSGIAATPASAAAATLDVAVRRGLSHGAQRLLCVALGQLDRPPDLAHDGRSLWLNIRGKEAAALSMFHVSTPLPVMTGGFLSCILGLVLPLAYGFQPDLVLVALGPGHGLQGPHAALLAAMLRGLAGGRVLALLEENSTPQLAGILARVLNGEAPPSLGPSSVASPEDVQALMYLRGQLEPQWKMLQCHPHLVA
Test: HDAC10 isozyme inhibition
Type: biochemical
pIC50: −log10 of the molar value.

O=C(NO)c1cc(CCNC(=O)c2cc(-c3cccc(NC(=O)C4CCCCC4)c3)on2)on1 = < 4.30

Next up:
What value of measured pIC50 is listed for `O=C(NO)c1cc(Cn2c3ccccc3c3ccccc32)on1` ? < 4.30
